yeast fitness values, listed per item
B1: tRNA (parent)
chain: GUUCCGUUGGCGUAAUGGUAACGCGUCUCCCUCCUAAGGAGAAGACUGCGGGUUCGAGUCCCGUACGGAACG

Variants of: B1
experiment_notes: yeast fitness relative to wild type (ratio to wild type); higher = fitter; tRNA-Arg(CCU), competitive growth, 37 C, YPD
This sample holds only a part of the variants without activity.

* C22U C61U | 0.72
* A14U | 0.667
* C24U U26C G58A | 1.01
* C29A C33U C61U A69U | ≤ 0.5
* U16C C24U C30U C66U | ≤ 0.5
* A15G G58A C62U A69C | 0.685
* G9A C11A U35C G50C | ≤ 0.5
* C4A C11U A21U G23A | ≤ 0.5
* G6A A15U C22A | ≤ 0.5
* C5A U7G C29G C33U G44C A69C | ≤ 0.5

Lab book: yeast fitness of U3G C11G A15C C60U noted as ≤ 0.5

A45U G56C G58A A65U yielded yeast fitness of 0.5

Lab note: C4A G18A gave yeast fitness of 0.78

get_value(item= G10C U16G C31A U32G C66A , readout=yeast fitness) returns ≤ 0.5
